- Tested on: Escherichia coli
- Experiment: Antimicrobial activity against Escherichia coli MC4100 harboring pA-acc1 plasmid by agar dilution technique
- Format: functional
Property label: MIC (µg/mL)
Your answer is read as µg/mL, so omit the unit and give the number.

Some compounds with known MIC results, for comparison:
CO/N=C(\C(=O)N[C@@H]1C(=O)N2C(C(=O)O)=C(COC(C)=O)CS[C@H]12)c1csc(N)n1 : 8
CO/N=C(\C(=O)N[C@@H]1C(=O)N2C(C(=O)[O-])=C(C[N+]3(C)CCCC3)CS[C@H]12)c1csc(N)n1 : 0.12

# input Identify MIC associated with the compound "CCN1CCN(C(=O)N[C@@H](C(=O)N[C@@H]2C(=O)N3[C@@H]2SC(C)(C)[C@@H]3C(=O)O)c2ccccc2)C(=O)C1=O"
# output 64

# input Identify MIC associated with the compound "CC(C)(O/N=C(\C(=O)N[C@@H]1C(=O)N2C(C(=O)[O-])=C(C[n+]3ccccc3)CS[C@H]12)c1csc(N)n1)C(=O)O"
# output 32

* * *

- System: Escherichia coli
- Experiment: Antimicrobial activity against Escherichia coli MC4100 harboring pB-acc1 plasmid by agar dilution technique
- Assay type: functional
The entries below come with measured log10 MIC values attached.
Each number you see is log10 of MIC, and the unit inside the log is µg/mL.

Some compounds with known log10 MIC results, for comparison:
CO/N=C(\C(=O)N[C@@H]1C(=O)N2C(C(=O)O)=C(COC(C)=O)CS[C@H]12)c1csc(N)n1 : 1.20
CCN1CCN(C(=O)N[C@@H](C(=O)N[C@@H]2C(=O)N3[C@@H]2SC(C)(C)[C@@H]3C(=O)O)c2ccccc2)C(=O)C1=O : 2.41
CO/N=C(\C(=O)N[C@@H]1C(=O)N2C(C(=O)[O-])=C(C[N+]3(C)CCCC3)CS[C@H]12)c1csc(N)n1 : -0.92
C[C@H]1[C@H](NC(=O)/C(=N\OC(C)(C)C(=O)O)c2csc(N)n2)C(=O)N1S(=O)(=O)O : 0.00

Below: the item to evaluate.
# input GET log10 MIC | system: Escherichia coli | item: "CO/N=C(\C(=O)N[C@@H]1C(=O)N2C(C(=O)O)=C(CSc3nc(=O)c(O)nn3C)CS[C@H]12)c1csc(N)n1"
# output 1.51

* * *

- Test system: Escherichia coli
- Experiment: Antimicrobial activity against Escherichia coli MC4100 harboring pA-acc4 plasmid by agar dilution technique
- Type: functional
Property label: MIC (µg/mL)
Your answer is read as µg/mL, so omit the unit and give the number.

CO/N=C(\C(=O)N[C@@H]1C(=O)N2C(C(=O)[O-])=C(C[N+]3(C)CCCC3)CS[C@H]12)c1csc(N)n1 : 0.12
CO/N=C(\C(=O)N[C@@H]1C(=O)N2C(C(=O)O)=C(CSc3nc(=O)c(O)nn3C)CS[C@H]12)c1csc(N)n1 [CEFTRIAXONE] : 32
C[C@H]1[C@H](NC(=O)/C(=N\OC(C)(C)C(=O)O)c2csc(N)n2)C(=O)N1S(=O)(=O)O [AZTREONAM] : 2
CC(C)(O/N=C(\C(=O)N[C@@H]1C(=O)N2C(C(=O)[O-])=C(C[n+]3ccccc3)CS[C@H]12)c1csc(N)n1)C(=O)O [CEFTAZIDIME] : 256
CO/N=C(\C(=O)N[C@@H]1C(=O)N2C(C(=O)O)=C(COC(C)=O)CS[C@H]12)c1csc(N)n1 [CEFOTAXIME] : 32
CO[C@@]1(NC(=O)C2SC(=C(C(N)=O)C(=O)O)S2)C(=O)N2C(C(=O)O)=C(CSc3nnnn3C)CS[C@@H]21 (some centres not stated) [CEFOTETAN] : 1

# input GET MIC | system: Escherichia coli | item: CO[C@@]1(NC(=O)Cc2cccs2)C(=O)N2C(C(=O)O)=C(COC(N)=O)CS[C@@H]21 [CEFOXITIN]
# output 4

# input GET MIC | system: Escherichia coli | item: CCN1CCN(C(=O)N[C@@H](C(=O)N[C@@H]2C(=O)N3[C@@H]2SC(C)(C)[C@@H]3C(=O)O)c2ccccc2)C(=O)C1=O [PIPERACILLIN]
# output 32
